Below is a list of entries, each paired with its recorded relative dielectric constant ∈r value.
PROTOCOL_TEXT: Relative dielectric constant of nonpolar solvent
Type: physicochemical
RECORDED_CONDITIONS: 1 kHz, 20° C. and 40% RH

{"SMILES_STRING": "CCCCCOCCCCC", "relative dielectric constant ∈r": 2.1}
{"SMILES_STRING": "CCCCCCOCCCCCC", "relative dielectric constant ∈r": 2.1}
{"SMILES_STRING": "C1CCC(OC2CCCCC2)CC1", "relative dielectric constant ∈r": 2.1}
{"SMILES_STRING": "CCCCCCCOCCCCCCC", "relative dielectric constant ∈r": 2.1}
{"SMILES_STRING": "CCCCCCCCCCCCOCCCCCCCCCCCC", "relative dielectric constant ∈r": 2.1}
